Molecular target: CDK1 CCNA2 (human) (UniProt P06493+P20248)
Sequence (P06493 whole entry, looked up): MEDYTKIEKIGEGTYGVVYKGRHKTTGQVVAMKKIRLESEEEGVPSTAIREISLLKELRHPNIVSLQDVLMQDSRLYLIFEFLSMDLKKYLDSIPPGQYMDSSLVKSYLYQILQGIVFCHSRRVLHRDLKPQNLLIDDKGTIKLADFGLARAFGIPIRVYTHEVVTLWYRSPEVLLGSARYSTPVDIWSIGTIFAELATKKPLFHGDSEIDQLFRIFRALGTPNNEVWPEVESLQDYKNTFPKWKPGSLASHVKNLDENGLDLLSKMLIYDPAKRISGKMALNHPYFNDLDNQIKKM
Sequence (P20248 whole entry, looked up): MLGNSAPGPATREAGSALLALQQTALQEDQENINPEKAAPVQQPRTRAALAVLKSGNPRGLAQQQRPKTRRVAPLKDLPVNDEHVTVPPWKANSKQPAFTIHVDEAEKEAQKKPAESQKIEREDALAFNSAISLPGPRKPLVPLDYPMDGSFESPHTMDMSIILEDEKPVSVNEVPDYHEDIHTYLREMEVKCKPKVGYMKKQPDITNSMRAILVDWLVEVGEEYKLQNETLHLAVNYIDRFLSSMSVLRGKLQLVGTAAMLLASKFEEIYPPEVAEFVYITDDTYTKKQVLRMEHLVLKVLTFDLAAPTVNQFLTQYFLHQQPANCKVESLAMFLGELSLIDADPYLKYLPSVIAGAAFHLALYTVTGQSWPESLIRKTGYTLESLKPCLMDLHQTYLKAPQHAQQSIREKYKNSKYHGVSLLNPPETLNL
Assay: radiometric filter-binding kinase assay, Kinase HotSpot
Conditions: compound 0.5 µM; ATP 10 µM
Kindly return label 1 if reported residual activity is no lower than 90%; return label 0 if it is lower.

Below are worked cases with known answers.
CN(C)C[C@H]1CCn2c(c(C3=C(c4cn(C)c5ccccc45)C(=O)NC3=O)c3ccccc32)C1; label 0
O=C(CCCc1ccc(-c2ccccc2F)cc1)Nc1ccc(O)cc1; label 1
COc1cc2ncc(-c3ccccc3)nc2cc1OC; label 1
COc1cc(OC)c(/C=C2\C(=O)Nc3ccccc32)c(OC)c1; label 1

# check: residual activity of CCn1cnc2c(Nc3cccc(Cl)c3)nc(N[C@@H]3CCCC[C@@H]3N)nc21 is greater than or equal to 90% label 0

And what about the compound COc1ccc(OC)c2c(=S)c3ccccc3[nH]c12 ? label 1

Moving on to the next compound: Nc1nnc2[nH]c3ccccc3nc1-2 label 1

Also check O=C1Nc2ccccc2/C1=C1/Nc2ccccc2/C1=N\OCCC(O)CO (centres undefined) label 0

Now consider CC(=O)O/N=C1\C(=C2\C(=O)Nc3cc(Br)ccc32)Nc2ccccc21 and answer again. label 0

###

Molecular target: PBK (human) (UniProt Q96KB5)
Sequence (Q96KB5 whole entry, looked up): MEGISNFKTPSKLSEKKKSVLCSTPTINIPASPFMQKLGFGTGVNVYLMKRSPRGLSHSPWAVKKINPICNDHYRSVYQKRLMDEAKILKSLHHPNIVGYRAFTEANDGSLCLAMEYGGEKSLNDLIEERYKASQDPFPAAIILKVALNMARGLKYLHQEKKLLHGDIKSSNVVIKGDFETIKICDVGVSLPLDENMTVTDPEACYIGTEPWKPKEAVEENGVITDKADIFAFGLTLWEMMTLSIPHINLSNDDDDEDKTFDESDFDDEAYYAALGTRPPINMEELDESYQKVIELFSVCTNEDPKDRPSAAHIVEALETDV
Experiment: radiometric filter-binding kinase assay, Kinase HotSpot
Details: compound 0.5 µM; ATP 10 µM
parameter: residual activity (%)
Answers are plain numbers, in %.

COc1ccc(OC)c2c(=S)c3ccccc3[nH]c12; 107
CC(C)c1nn(-c2c(Cl)cccc2Cl)c2nc(Cc3ccc(OCCO)cc3)nc(O)c12; 101
Cn1sc(=O)n(Cc2ccccc2)c1=O; 107

Each of the following entries comes with a recorded value; kindly state residual activity for each.
1. CN([C@@H](Cc1ccc(OS(=O)(=O)c2cccc3cnccc23)cc1)C(=O)N1CCN(c2ccccc2)CC1)S(=O)(=O)c1cccc2cnccc12
2. O=C(O)/C=C/c1cc(Br)c(Br)c(Br)c1Br
3. COc1cc2ncnc(N3CCN(C(=O)Nc4ccc(Oc5ccccc5)cc4)CC3)c2cc1OC
4. CCN(CC)CCCCN1c2ccccc2Oc2ccc(Cl)cc21

1: 99.2; 2: 96.2; 3: 85.8; 4: 105

Fill in residual activity for each of the 7 compounds listed.
1. CC(=O)O/N=C1\C(=C2\C(=O)Nc3cc(Br)ccc32)Nc2ccccc21
2. O=C(CCCc1ccc(-c2ccccc2F)cc1)Nc1ccc(O)cc1
3. CCn1cnc2c(Nc3cccc(Cl)c3)nc(N[C@@H]3CCCC[C@@H]3N)nc21
4. Cc1nc2cc3nc(-c4cccs4)cnc3cc2n1C
5. O=C1Nc2ccccc2/C1=C1\Nc2ccccc2\C1=N/O
6. Cn1cnc2cc3c(Nc4cccc(Br)c4)ncnc3cc21
7. O=C1Nc2ccccc2/C1=C1/Nc2ccccc2/C1=N\OCCC(O)CO (centres undefined)

1: 76.8; 2: 90.8; 3: 105; 4: 98.9; 5: 89.5; 6: 102; 7: 80.6

###

Target: MERTK (human) (UniProt Q12866)
Sequence (Q12866 whole entry, looked up): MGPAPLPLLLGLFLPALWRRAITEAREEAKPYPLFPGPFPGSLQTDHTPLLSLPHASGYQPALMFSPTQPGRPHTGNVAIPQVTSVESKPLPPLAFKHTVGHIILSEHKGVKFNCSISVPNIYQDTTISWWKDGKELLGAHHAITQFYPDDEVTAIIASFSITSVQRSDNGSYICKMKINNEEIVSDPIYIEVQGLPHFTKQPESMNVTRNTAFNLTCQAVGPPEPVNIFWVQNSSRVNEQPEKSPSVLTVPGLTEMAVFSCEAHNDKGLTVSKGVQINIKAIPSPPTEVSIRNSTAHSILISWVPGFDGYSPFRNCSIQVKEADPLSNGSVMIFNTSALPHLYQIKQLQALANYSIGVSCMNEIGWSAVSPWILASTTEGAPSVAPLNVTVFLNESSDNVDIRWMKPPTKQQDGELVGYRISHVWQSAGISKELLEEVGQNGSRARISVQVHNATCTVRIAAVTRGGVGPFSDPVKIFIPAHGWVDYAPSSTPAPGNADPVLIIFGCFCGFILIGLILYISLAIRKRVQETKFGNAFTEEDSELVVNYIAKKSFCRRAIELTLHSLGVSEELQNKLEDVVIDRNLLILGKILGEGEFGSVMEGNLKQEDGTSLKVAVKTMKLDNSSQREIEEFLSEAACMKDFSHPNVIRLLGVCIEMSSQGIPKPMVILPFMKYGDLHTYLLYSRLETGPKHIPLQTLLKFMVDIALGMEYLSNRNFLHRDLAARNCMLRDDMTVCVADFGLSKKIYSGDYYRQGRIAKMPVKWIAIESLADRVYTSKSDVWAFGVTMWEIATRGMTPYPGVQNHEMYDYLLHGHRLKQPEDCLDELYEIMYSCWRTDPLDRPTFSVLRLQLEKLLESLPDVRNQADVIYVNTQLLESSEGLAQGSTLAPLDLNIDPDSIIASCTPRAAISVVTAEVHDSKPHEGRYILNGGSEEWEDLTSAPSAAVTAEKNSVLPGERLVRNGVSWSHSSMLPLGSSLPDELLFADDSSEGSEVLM
Assay: radiometric filter-binding kinase assay, Kinase HotSpot
Conditions: compound 0.5 µM; ATP 10 µM
parameter: residual activity

Some solved entries appear below for comparison.
COc1ccc(CNC(=O)Nc2ncc([N+](=O)[O-])s2)cc1; 91.1%
O=C1NC(=O)/C(=C\c2ccc3nccnc3c2)S1; 92.1%

Now let's try a different one.
Field request: residual activity | item: Cc1nc2cc3nc(-c4cccs4)cnc3cc2n1C 90.4%
